Assay: NCI Yeast Anticancer Drug Screen. Data for the mec2-1 strain (AID 157)
Conditions: S. cerevisiae mec2-1 strain, at 50.0 µM, stronger effect = higher value
About 79,000 compounds went through this panel and 15% of them were active in at least one assay; those are over-represented in the sample as a whole. Where a SMILES comes first, the peptide text is derived from it. The star is where a group is joined. Cbz = O=C(OCc1ccccc1)*
valueType: growth inhibition (%)
Write the answer as a number in %, unit excluded.

Tell me its growth inhibition given CC(NC(=O)C(Cc1ccc(O)cc1)NC(=O)C(C)NC(=O)OCc1ccccc1)C(=O)O (stereo not drawn) (Cbz-Ala-Tyr-Ala-OH; configuration not given here) as the entry. 13.3

Tell me its growth inhibition given `Nc1nc(O)cc(=O)[nH]1` as the entry. -1.95

Tell me its growth inhibition given `OCCSCc1cc2c(cc1Br)OCO2` as the entry. -2

Tell me its growth inhibition given `O=C1OC(=O)C(=C(c2ccccc2)c2ccccc2)C1=C(c1ccccc1)c1ccccc1` as the entry. 64.1

Tell me its growth inhibition given `COc1cc(-c2ccc(NC(=O)N3CC3)c(OC)c2)ccc1NC(=O)N1CC1` as the entry. -2.5

Tell me its growth inhibition given `C=CCc1ccc(OC(=O)Nc2ccc(S(=O)(=O)NC3CCCCC3)cc2)c(OC)c1` as the entry. 8.85

Tell me its growth inhibition given `[O-]/[N+](=C\c1cccc(O)c1)c1ccccc1` as the entry. 16.4

Tell me its growth inhibition given `CC12CC3CC(O)(C1)CC(O)(C3)C2` as the entry. -11.1

Tell me its growth inhibition given `c1ccc(-c2ccccc2-c2ccccc2)cc1` as the entry. -4.8

Tell me its growth inhibition given `O=C(Nc1nc(C23CC4CC(CC(C4)C2)C3)cs1)c1cc2cc(Br)cc(Br)c2oc1=O` as the entry. -13.8

Tell me its growth inhibition given `CCN(/C=C/C=C(C#N)C#N)CC` as the entry. -5.3
